{"MOLECULE": "Cc1cc(-c2nc3cccnn3c2-c2ccnc(NC(=O)c3ccc(OC(F)(F)F)cc3)c2)ccc1F", "melting point": "225 to 226 °C"}
{"MOLECULE": "O=Cc1cn(Cc2ccc(OCc3ccccc3)cc2)nc1OCc1ccc(OCc2ccccc2)cc1", "melting point": "138 to 139 °C"}
{"MOLECULE": "CC(C)C(C#N)c1ccc([N+](=O)[O-])cc1 (stereo not given)", "melting point": "71 to 72 °C"}
{"MOLECULE": "CCNC(=O)C(C)Oc1ccc(N(C)c2nc3cc(Cl)ccc3o2)cc1 (stereo not given)", "melting point": "141 to 142 °C"}
{"MOLECULE": "COc1ccc(-c2nc(N)ncc2-c2ccc(=O)n(C(C)C)n2)cc1OC", "melting point": "167 °C"}

----------
Entries and their melting point values follow.

{"COMPOUND": "CN1CCN(Cc2nc(C(N)=O)nn2-c2ccc(Cl)cc2C(=O)c2ccccc2Cl)CC1", "melting point": "167 to 169 °C"}
{"COMPOUND": "CC(CS)C(=O)N(CC(=O)O)c1ccccc1 (stereo not given)", "melting point": "168 to 170 °C"}
{"COMPOUND": "COc1ccc(C2=NNC(=O)CC2c2ccccc2)cc1 (stereo not given)", "melting point": "176 to 177 °C"}
{"COMPOUND": "CNc1nc(NC(=O)NS(=O)(=O)c2ccccc2Cl)nc(OC)n1", "melting point": "224 to 228 °C"}
{"COMPOUND": "O=C(O)C(=O)c1ccc(OCCOc2ccnc3ccccc23)cc1", "melting point": "271 °C"}
{"COMPOUND": "COc1ccccc1NC(=O)Nc1nc(N2CCN(c3ccccc3OC(C)C)CC2)nc(N(CCC(=O)O)Cc2ccc(Cl)c(Cl)c2)n1", "melting point": "115 to 118 °C"}
{"COMPOUND": "CC(C)(C)OC(=O)N1CCCC1C(=O)Nc1ccc(-n2nc(C(F)(F)F)cc2C(F)(F)F)cc1 (stereo not given)", "melting point": "70 to 72 °C"}
{"COMPOUND": "CN(C)c1cccc(-c2nc3c(N[C@H]4[C@@H](C(N)=O)[C@@H]5C=C[C@H]4C5)ccnc3[nH]2)c1", "melting point": "200 to 204 °C"}
{"COMPOUND": "Cc1c(-c2ccc(O)cc2)n(Cc2ccc(OCCN3CCC(O)CC3)cc2)c2ccc(O)cc12", "melting point": "80 to 90 °C"}
{"COMPOUND": "CN(C)CCCn1c2c(c3cc(C(=O)O)ccc31)CCCCCC2", "melting point": "149 to 150 °C"}
{"COMPOUND": "Nc1nc(N)c2ncn(CCC(CO)CO)c2n1", "melting point": "187 to 190 °C"}
{"COMPOUND": "COc1cc2c3c(n(C)c(=O)c2cc1OC)-c1cc2c(cc1C3=CCCCCCBr)OCO2", "melting point": "182 to 185 °C"}
{"COMPOUND": "O=S1(=O)N=CNc2ccc(F)cc21", "melting point": "260 to 263 °C"}
{"COMPOUND": "CC1=C(C(=O)OC(C)(C)C)C(c2ccccc2Br)C(C(=O)OC(C)(C)C)=C(C)N1", "melting point": "162 to 164 °C"}
{"COMPOUND": "O=c1cc(-c2cc3ccccc3cc2O)oc2ccccc12", "melting point": "202 °C"}
{"COMPOUND": "CCN1CC(=O)N(c2cc(Oc3ncccc3C(F)(F)F)c(Cl)cc2F)C1=O", "melting point": "162 to 163 °C"}
{"COMPOUND": "COCOCc1nc(N)c2ncc(OC)nc2n1", "melting point": "193 to 195 °C"}
{"COMPOUND": "Cc1ccc(-c2cc(F)c(F)cc2-c2ccc(S(C)(=O)=O)cc2)cn1", "melting point": "141 to 142 °C"}
{"COMPOUND": "COC(=O)CCc1cc2cc(Cl)ccc2n1S(=O)(=O)c1ccc(NC(C)=O)cc1", "melting point": "154 to 157 °C"}
{"COMPOUND": "Nc1nc(CCl)cc(OCC(F)(F)F)n1", "melting point": "77 to 78 °C"}
